- Tested on: Escherichia coli ATCC BAA-2523
- Format: cell-based
- Experimental Context: ATCC BAA-2523
Bridge positions count the residues as written; N and C are the ends. Square brackets hold non-standard residues; d marks the D form. Peptide text beside a SMILES is read from it. * marks the point of attachment. Heptanoyl = CCCCCCC(=O)*; Octanoyl = CCCCCCCC(=O)*; Orn = NCCC[C@H](N)C(=O)O; dDap = NC[C@@H](N)C(=O)O; Dab = NCC[C@H](N)C(=O)O
Observation Type: MIC

Molecule	Value Observed
CCCCCCC(=O)N[C@@H](CCN)C(=O)N[C@H](C(=O)N[C@H](CN)C(=O)N[C@H]1CCNC(=O)[C@H]([C@@H](C)O)NC(=O)[C@H](CCN)NC(=O)[C@H](CCN)NC(=O)[C@H](CC(C)C)NC(=O)[C@@H](Cc2ccccc2)NC(=O)[C@H](CCN)NC1=O)[C@@H](C)O [Compound 34] (Heptanoyl-[Dab]T[dDap][Dab][Dab][dF]L[Dab][Dab]T; lactam 4-C)	0.06 µg/mL
CCCCCCCC(=O)N[C@@H](CCN)C(=O)N[C@H](C(=O)N[C@H](CO)C(=O)N[C@H]1CCNC(=O)[C@H]([C@@H](C)O)NC(=O)[C@H](CCN)NC(=O)[C@H](CCCN)NC(=O)[C@H]([C@@H](C)O)NC(=O)[C@@H](Cc2ccccc2)NC(=O)[C@H](CCN)NC1=O)[C@@H](C)O [Compound 78] (Octanoyl-[Dab]T[dS][Dab][Dab][dF]T[Orn][Dab]T; lactam 4-C)	≤0.03 µg/mL

Please look at the following molecule next.
Exercise: Provide MIC, recorded with Escherichia coli ATCC BAA-2523, of CCCCCCCC(=O)N[C@@H](CCN)C(=O)N[C@H](C(=O)N[C@@H](CCN)C(=O)N[C@H]1CCNC(=O)[C@H]([C@@H](C)O)NC(=O)[C@H](CCN)NC(=O)[C@H](CCN)NC(=O)[C@H]([C@@H](C)O)NC(=O)[C@@H](Cc2ccccc2)NC(=O)[C@H](CCN)NC1=O)[C@@H](C)O [Compound 18] (Octanoyl-[Dab]T[Dab][Dab][Dab][dF]T[Dab][Dab]T; lactam 4-C)
Key: ≤0.03 µg/mL

====

- Tested on: Klebsiella pneumoniae KPN+19-15
- Format: cell-based
- Experimental Context: KPN+19-15
Bridge positions count the residues as written; N and C are the ends. Square brackets hold non-standard residues; d marks the D form. Peptide text beside a SMILES is read from it. * marks the point of attachment. dOrn = NCCC[C@@H](N)C(=O)O; Nonanoyl = CCCCCCCCC(=O)*; dDab = NCC[C@@H](N)C(=O)O; Dab = NCC[C@H](N)C(=O)O; Dap = NC[C@H](N)C(=O)O
Examples of compounds with documented MIC follow.
Express the reported value numerically, then name its unit.

Compound	Subject Of Test	Observation Type	Value Observed
CCCCCCCCC(=O)N[C@@H](CN)C(=O)N[C@H](C(=O)N[C@H](CCN)C(=O)N[C@H]1CCNC(=O)[C@H]([C@@H](C)O)NC(=O)[C@H](CCN)NC(=O)[C@H](CCN)NC(=O)[C@H](CC(C)C)NC(=O)[C@@H](Cc2ccccc2)NC(=O)[C@H](CCN)NC1=O)[C@@H](C)O [Compound 95] (Nonanoyl-[Dap]T[dDab][Dab][Dab][dF]L[Dab][Dab]T; lactam 4-C)	Klebsiella pneumoniae KPN+19-15	MIC	0.06 µg/mL

Please look at the following compound next.
Exercise: Tell me MIC reported for CCCCCCCCC(=O)N[C@@H](CCN)C(=O)N[C@H](C(=O)N[C@H](CCCN)C(=O)N[C@H]1CCNC(=O)[C@H]([C@@H](C)O)NC(=O)[C@H](CCN)NC(=O)[C@H](CCN)NC(=O)[C@H]([C@@H](C)O)NC(=O)[C@@H](Cc2ccccc2)NC(=O)[C@H](CCN)NC1=O)[C@@H](C)O [Compound 25] (Nonanoyl-[Dab]T[dOrn][Dab][Dab][dF]T[Dab][Dab]T; lactam 4-C)
Key: 0.125 µg/mL
